- target or system: T1, TNFR1 (Homo sapiens, UniProt P19438)
- T1 chain: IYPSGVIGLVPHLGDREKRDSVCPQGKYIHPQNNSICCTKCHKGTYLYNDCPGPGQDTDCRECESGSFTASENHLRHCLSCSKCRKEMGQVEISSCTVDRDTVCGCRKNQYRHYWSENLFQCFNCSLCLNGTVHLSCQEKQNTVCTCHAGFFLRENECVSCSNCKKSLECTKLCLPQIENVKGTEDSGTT
- protocol description: yeast display SC50
Our labelling divides records by apparent Kd (screen) into ranges: lo: < 0.6 nM; med: ≥ 0.6 nM and < 1 nM; hi: ≥ 1 nM

L64Q (designed binder) MTLQELLREEALRRAEAEAFRYALELLAEKFPEQKEYLLDLAEEIESQIRSLSGVDVEDVRKFQDKEWAWVKELLAEHPAELAEVEAARAARLAELRAEVEAKVAA    med

## Input The entry to classify is R92Y (designed binder) MTLQELLREEALRRAEAEAFRYALELLAEKFPEQKEYLLDLAEEIESQIRSLSGVDVEDVRKFLDKEWAWVKELLAEHPAELAEVEAARAAYLAELRAEVEAKVAA ; which class holds it?
## Output lo

## Input The entry to classify is Y37D (designed binder) MTLQELLREEALRRAEAEAFRYALELLAEKFPEQKEDLLDLAEEIESQIRSLSGVDVEDVRKFLDKEWAWVKELLAEHPAELAEVEAARAARLAELRAEVEAKVAA ; which class holds it?
## Output hi

## Input The entry to classify is S47C (designed binder) MTLQELLREEALRRAEAEAFRYALELLAEKFPEQKEYLLDLAEEIECQIRSLSGVDVEDVRKFLDKEWAWVKELLAEHPAELAEVEAARAARLAELRAEVEAKVAA ; which class holds it?
## Output med

## Input The entry to classify is E10V (designed binder) MTLQELLREVALRRAEAEAFRYALELLAEKFPEQKEYLLDLAEEIESQIRSLSGVDVEDVRKFLDKEWAWVKELLAEHPAELAEVEAARAARLAELRAEVEAKVAA ; which class holds it?
## Output med

## Input The entry to classify is L64H (designed binder) MTLQELLREEALRRAEAEAFRYALELLAEKFPEQKEYLLDLAEEIESQIRSLSGVDVEDVRKFHDKEWAWVKELLAEHPAELAEVEAARAARLAELRAEVEAKVAA ; which class holds it?
## Output med

## Input The entry to classify is S51G (designed binder) MTLQELLREEALRRAEAEAFRYALELLAEKFPEQKEYLLDLAEEIESQIRGLSGVDVEDVRKFLDKEWAWVKELLAEHPAELAEVEAARAARLAELRAEVEAKVAA ; which class holds it?
## Output hi

## Input The entry to classify is F20H (designed binder) MTLQELLREEALRRAEAEAHRYALELLAEKFPEQKEYLLDLAEEIESQIRSLSGVDVEDVRKFLDKEWAWVKELLAEHPAELAEVEAARAARLAELRAEVEAKVAA ; which class holds it?
## Output lo

## Input The entry to classify is E99R (designed binder) MTLQELLREEALRRAEAEAFRYALELLAEKFPEQKEYLLDLAEEIESQIRSLSGVDVEDVRKFLDKEWAWVKELLAEHPAELAEVEAARAARLAELRARVEAKVAA ; which class holds it?
## Output lo

## Input The entry to classify is E46T (designed binder) MTLQELLREEALRRAEAEAFRYALELLAEKFPEQKEYLLDLAEEITSQIRSLSGVDVEDVRKFLDKEWAWVKELLAEHPAELAEVEAARAARLAELRAEVEAKVAA ; which class holds it?
## Output med

## Input The entry to classify is E67S (designed binder) MTLQELLREEALRRAEAEAFRYALELLAEKFPEQKEYLLDLAEEIESQIRSLSGVDVEDVRKFLDKSWAWVKELLAEHPAELAEVEAARAARLAELRAEVEAKVAA ; which class holds it?
## Output hi

## Input The entry to classify is S47G (designed binder) MTLQELLREEALRRAEAEAFRYALELLAEKFPEQKEYLLDLAEEIEGQIRSLSGVDVEDVRKFLDKEWAWVKELLAEHPAELAEVEAARAARLAELRAEVEAKVAA ; which class holds it?
## Output hi
